# Tested on: UACC-62
# Assay notes: NCI tumour cell line growth inhibition, 48 h
The source made the active and inactive calls. Rule as the data show it: active = GI50 up to about 1.1 µM and inactive = higher.
Possible outcomes: TRUE (active), FALSE (inactive)

INSERT INTO assay_data (molecule, study_system, discrete_label) VALUES
  ('CC1[C@@]2(O[C@@H]3C=C4C5CCC6Cc7nc8c(nc7C[C@@]6(C)C5C[C@H](O)[C@@]4(C)[C@]13O)CC1CCc3c(cc4c5c3C(O)C[C@H]5[C@@H](C)C3(O4)OC(C)(C)CC3O)[C@]1(C)C8)O[C@@](C)(CO)C[C@@H]2O (stereo partly drawn)', 'UACC-62', 'TRUE'),
  ('Cc1ccc(S(=O)(=O)N2CCN(S(=O)(=O)c3ccc(C)cc3)CCN(S(=O)(=O)c3ccc(C)cc3)Cc3cc(Br)c(Br)cc3CN(S(=O)(=O)c3ccc(C)cc3)CC2)cc1', 'UACC-62', 'FALSE'),
  ('Oc1cc2cc(O)nc(O)c2c(O)n1', 'UACC-62', 'FALSE');

====

Reported GI50 values for the following compounds.
# System: M19-MEL
# Assay notes: NCI tumour cell line growth inhibition, 48 h
Active and inactive are the calls of the source. Rule as the data show it: active = GI50 up to about 1.1 µM and inactive = higher.
Property name: GI50

INSERT INTO measurements (compound, observed_measurement) VALUES
  ('O=C(c1ccccc1)[C@H]1Nc2ccc(Cl)cc2[C@H]2c3ccccc3O[C@H]21', '19.1 µM (inactive)'),
  ('COc1ccc2cc1Oc1ccc(cc1)CC1c3cc4c(cc3CCN1C)Oc1c(OC)cc3c(c1O4)C(C2)N(C)CC3 (centres undefined)', '4.01 µM (inactive)'),
  ('CCOc1ccc(N(CC(=O)N2CC(=O)Nc3cc(C)c(C)cc32)C(C)=O)cc1', '> 100 µM (inactive)'),
  ('O=C(Nc1c(Cl)cc([N+](=O)[O-])cc1Cl)/C(=N\Nc1cccc(Cl)c1)c1c(O)c2ccccc2oc1=O', '> 100 µM (inactive)'),
  ('Cc1cc(C)c(-n2c(-c3ccc(Br)cc3)cs/c2=N\N=C2C=C(C(C)(C)C)C(=O)C(C(C)(C)C)=C2)c(C)c1', '> 100 µM (inactive)'),
  ('O=C(OCc1nc2ccc(Br)cc2c(=O)n1-c1ccccc1)c1ccccc1O', '> 100 µM (inactive)'),
  ('Cc1ccc(C)c(NC(=O)CC/C(=N\NC(=O)C(=O)NN)C(C)C(=O)c2ccc(O)cc2)c1 (centres undefined)', '> 100 µM (inactive)'),
  ('COc1ccc(/C=C2/CSC/C(=C/c3ccc(OC)c(OC)c3)C2=O)cc1OC', '2.14 µM (inactive)'),
  ('C#C[C@@]1(O)CCCC2=CC(=O)C[C@]21C', '> 100 µM (inactive)');

====

# Tested on: OVCAR-8
# Assay notes: NCI tumour cell line growth inhibition, 48 h
Calls of active or inactive are those of the source. Rule as the data show it: active = GI50 up to about 1.1 µM and inactive = higher.
Possible outcomes: active, inactive

INSERT INTO measurements (compound, study_system, discrete_label) VALUES
  ('COC(=O)[C@@]1(C)C(=O)CC[C@@H]1C=O', 'OVCAR-8', 'inactive'),
  ('CC1=NC(=Cc2ccc(O)cc2)C(=O)N1n1c(-c2ccccc2)nc2ccccc2c1=O', 'OVCAR-8', 'inactive'),
  ('Cn1c2cc(O)cc(O)c2c(=O)c2c([N+](=O)[O-])cccc21', 'OVCAR-8', 'inactive'),
  ('N#Cc1c(-c2ccco2)cc(-c2ccc(NCc3nc4ccccc4[nH]3)cc2)nc1N', 'OVCAR-8', 'inactive'),
  ('Cc1cc(C)c(-n2c(-c3ccc(Br)cc3)cs/c2=N\N=C2C=C(C(C)(C)C)C(=O)C(C(C)(C)C)=C2)c(C)c1', 'OVCAR-8', 'inactive'),
  ('CCOC(=O)[C@@]12NN=N[C@@H]1[C@H]1CO[C@H](c3ccccc3)N1C2=O', 'OVCAR-8', 'inactive'),
  ('C#C[C@]1(O)CC[C@H]2[C@@H]3CCC4=C/C(=N/CCOC(=O)c5cccc6c(=O)c7ccccc7[nH]c56)CC[C@@H]4[C@H]3CC[C@@]21C', 'OVCAR-8', 'inactive'),
  ('Cc1ccc(NC(=O)C(=O)C(C#N)c2ccccc2C)cc1C (stereo not given)', 'OVCAR-8', 'inactive'),
  ('NCCCN(CCCCN(CCCN)CCCc1ccccc1)CCCc1ccccc1', 'OVCAR-8', 'inactive'),
  ('O=C1c2ccccc2C(=O)c2c(NCCNCCO)ccc(O)c21', 'OVCAR-8', 'inactive'),
  ('CN(C)CCNCCCNc1c2ccccc2nc2cccc([N+](=O)[O-])c12', 'OVCAR-8', 'active'),
  ('C=C1CCC(O)C/C1=C/C=C1\CCCC2(C)C1CCC2C(C)CCCC(C)C (stereo not given)', 'OVCAR-8', 'inactive'),
  ('O=C1N=C(Nc2ccccc2Cl)SC1C(=O)Nc1ccc([N+](=O)[O-])cc1[N+](=O)[O-] (stereo not given)', 'OVCAR-8', 'inactive'),
  ('COc1cc2c(cc1OC)C13CCN4CC5=CCOC(CC(=O)O)C(C5CC41)C3N2 (stereo not given)', 'OVCAR-8', 'inactive'),
  ('CC(C)C1C(=O)NC(CO)Cc2c[nH]c3c(C(c4c[nH]c5ccccc45)C(O)CO)ccc(c23)N1C (stereo not given)', 'OVCAR-8', 'inactive'),
  ('COC1=C(C)C(=O)C2=C(C1=O)[C@@H]1[C@@H]3Cc4c(OC(=O)CO)c(C)c(OC)c(O)c4[C@H](CNC(=O)C(C)=O)N3[C@@H](C#N)[C@H](C2)N1C', 'OVCAR-8', 'active'),
  ('Oc1[nH]c(Nc2cccc(Br)c2)nc2ncnc1-2', 'OVCAR-8', 'inactive'),
  ('O=C1CC(C(O)(C(F)(F)F)C(F)(F)Cl)CCC1C(O)(C(F)(F)F)C(F)(F)Cl (stereo not given)', 'OVCAR-8', 'inactive'),
  ('COc1c2c(c3ccccc3c1O)C1C=CC2C1 (stereo not given)', 'OVCAR-8', 'inactive'),
  ('O=C1C=C(O)c2nc(O)ccc2C1=O', 'OVCAR-8', 'inactive');

====

Reported GI50 values for the following compounds.
# Test system: SW-620
# Assay notes: NCI tumour cell line growth inhibition, 48 h
Calls of active or inactive are those of the source. No stated cut-off is given here; in the data, active = GI50 up to about 1.1 µM and inactive = higher.
Property name: GI50

INSERT INTO measurements (compound, study_system, observed_measurement) VALUES
  ('C=Cc1c(C)c(O)cc2c1-c1ccc(O)c(C)c1CC2', 'SW-620', '23.4 µM (inactive)'),
  ('COc1cccc(/C=N/C23CC4CC(CC(C4)C2)C3)c1', 'SW-620', '> 100 µM (inactive)'),
  ('CC1OC(c2ccc3c(c2O)C(=O)C2=C(C3=O)C3(O)C(=O)CC(C)(O)CC3(O)C=C2)CC(O)C1O (stereo not drawn)', 'SW-620', '7.98 µM (inactive)'),
  ('CCCNC(=O)CCC(C)[C@H]1CCC2C3C(C[C@H](OC(C)=O)[C@@]21C)[C@@]1(C)CCC2(C[C@H]1C[C@H]3OC(C)=O)OOC1(CCCCC1)OO2 (stereo partly drawn)', 'SW-620', '4.58 µM (inactive)'),
  ('O=C(OCCNC(=O)N1CC1)OCCNC(=O)N1CC1', 'SW-620', '> 10 µM (inactive)'),
  ('NCCOCn1cc(Cc2cccc(OCc3ccccc3)c2)c(=O)[nH]c1=O', 'SW-620', '> 100 µM (inactive)'),
  ('Oc1[nH]c(Nc2cccc(Br)c2)nc2ncnc1-2', 'SW-620', '> 100 µM (inactive)'),
  ('CCOc1cn(C2OC(CO)C(O)C2O)c(=O)[nH]c1=O (stereo not drawn)', 'SW-620', '31.3 µM (inactive)'),
  ('O=c1[nH]c(=S)[nH]cc1CN1CCOCC1', 'SW-620', '> 100 µM (inactive)'),
  ('CCOC(=O)C(NC(=O)c1ccccc1)(N1CCOCC1)C(F)(F)F (stereo not drawn)', 'SW-620', '> 100 µM (inactive)'),
  ('CCCCCC(/C=C/[C@@H]1[C@H]2CC(=O)O[C@H]2C[C@H]1N1CCOCC1)OC1CCCO1 (stereo partly drawn)', 'SW-620', '> 100 µM (inactive)'),
  ('CCOC(=O)/C=C1/Nc2cc(F)c(F)cc2NC1=O', 'SW-620', '> 100 µM (inactive)'),
  ('CCC(N)(C(=O)O)C(C)C (stereo not drawn)', 'SW-620', '> 100 µM (inactive)'),
  ('Cc1cc(C)[n+]2c(c1)C=CC2.[O-][Cl+3]([O-])([O-])[O-]', 'SW-620', '4.18 µM (inactive)'),
  ('O=C1CC2(CCN(Cc3ccccc3)CC2)C(=O)N1N1CCCCC1', 'SW-620', '> 100 µM (inactive)'),
  ('COc1c2c(c3ccccc3c1O)C1C=CC2C1 (stereo not drawn)', 'SW-620', '14.2 µM (inactive)'),
  ('CC(=O)NCc1c(C(N)=O)ncn1Cc1ccccc1', 'SW-620', '> 100 µM (inactive)'),
  ('COc1cc2c(cc1OCc1ccccc1)NC(=O)[C@@H]1C[C@@H](O)CN1C2=O', 'SW-620', '> 100 µM (inactive)'),
  ('NC(Cc1ccc(S(=O)(=O)O)cc1)C(=O)NC(Cc1ccc(S(=O)(=O)O)cc1)C(=O)O (stereo not drawn)', 'SW-620', '> 100 µM (inactive)'),
  ('O=C1c2ccccc2C(=O)N1C/C=N/NS(=O)(=O)c1ccc2ccccc2c1', 'SW-620', '> 100 µM (inactive)'),
  ('Nc1nc(N)c2ncn(CC3CCC(CO)C3)c2n1 (stereo not drawn)', 'SW-620', '> 100 µM (inactive)'),
  ('CCOC(=O)C1CCCCN1C(=O)Cc1c[nH]c2ccccc12 (stereo not drawn)', 'SW-620', '94.8 µM (inactive)'),
  ('Cc1cc2c(CC(=O)O)n[nH]c2c(C(=O)O)c1C', 'SW-620', '> 100 µM (inactive)');
